Reference source for all entries: patent US20240245647A1

Experiment: Thermodynamic aqueous solubility, shake-flask
Assay type: physicochemical
Conditions: PBS (shake-flask), aqueous buffer, thermodynamic from solid; PBS pH 7.4, 24 h, 25° C., assay standards
assay.metric: solubility at 24 h (µM)

Observe how each entry below is paired with its result.
CO[C@H]1/C=C/O[C@@]2(C)Oc3c(C)c(O)c4c(O)c(c(/C=N/N5CCN(C)CC5)c(O)c4c3C2=O)NC(=O)/C(C)=C\C=C\[C@H](C)[C@H](O)[C@@H](C)[C@@H](O)[C@@H](C)[C@H](OC(C)=O)[C@@H]1C [Rifampicin] ... 200
COCCc1ccc(OCC(O)CNC(C)C)cc1 (stereo not shown) [Metoprolol] ... 193

[1] O=C1NC(=O)C(c2ccccc2)(c2ccccc2)N1 [Phenytoin]
[2] CC(=O)N1CCN(c2ccc(OCC3COC(Cn4ccnc4)(c4ccc(Cl)cc4Cl)O3)cc2)CC1 (stereo not shown) [Ketoconazole]
Among 1 and 2 , whose measured solubility at 24 h is the smaller figure? I would appreciate it if you answered with the label of your choice.
1

====

Test system: VAP-1
Assay: in vitro
Conditions: male, Beagle, dog, plasma, pH 7.4
assay.metric: half-life at 1 μM (min)
Response body: numeric value in min, unit text excluded.

Item N=S(=O)(CCN)c1cccc(OCC2CCCCC2)c1 (racemic) with VAP-1 - half-life at 1 μM?
35.3
